System: M. tuberculosis H37Rv
assay text: Antitubercular activity assay, broth dilution, auto-luminescent strain
Type: cell-based, Mycobacterium tuberculosis
experimental parameters: Day 14th; read-out: MICs against H37Rv, Day 14th
Starred links: 1 amine or outer side, 2 acyl side, 3 side chain; linkers in the order of their positions; H or OH if unused. Non-standard residues stand in square brackets, D forms with d. Residues, ends and D or L forms follow the SMILES beside them. Groups on a side chain read outwards from the residue. X2 = COC(=O)[C@@H](NC(=O)[C@@H](C)C[C@@H](C(=O)[*:2])N(C)[*:1])[C@@H](C)O; Trp(1-(1,1-Me2-allyl)) = C=CC(C)(C)n1cc(C[C@H](N)C(=O)O)c2ccccc21; NMeGlu(4S-Me) = C[C@@H](C[C@@H](C(=O)[*:2])N(C)[*:1])C(=O)[*:3]; X1 = C[C@@H](C[C@@H](C(=O)[*:2])N(C)[*:1])C(=O)NCc1ccc(F)cc1; Tyr(3-NO2) = N[C@@H](Cc1ccc(O)c([N+](=O)[O-])c1)C(=O)O; Gly(E-crotyl) = C/C=C/C[C@H](N)C(=O)O; NMeL = CN[C@@H](CC(C)C)C(=O)O
Please go through the items and note down their MIC.
Give bare numbers, in µM.

Sample records with MIC:
{"columns": ["molecule", "endpoint value"],
 "data": [
  ["C=CC(C)(C)n1cc(C[C@@H]2NC(=O)[C@H](C/C=C/C)NC(=O)[C@H](CC(C)C)NC(=O)[C@H](C[C@H](C)C(=O)N[C@@H](Cc3c[nH]c4ccccc34)C(=O)OC)N(C)C(=O)[C@H](C)NC(=O)[C@H](Cc3ccc(O)c([N+](=O)[O-])c3)NC(=O)[C@H](CC(C)C)N(C)C2=O)c2ccccc21 [Compound 6, ilamycin NJL6] (cyclo(A[NMeGlu(4S-Me)]([Trp-OMe])L[Gly(E-crotyl)][Trp(1-(1,1-Me2-allyl))][NMeL][Tyr(3-NO2)]))", 1.7],
  ["C=CC(C)(C)n1cc(C[C@@H]2NC(=O)[C@H](C/C=C/C)NC(=O)[C@H](CC(C)C)NC(=O)[C@H](C[C@H](C)C(=O)NCc3ccc(F)cc3)N(C)C(=O)[C@H](C)NC(=O)[C@H](Cc3ccc(O)c([N+](=O)[O-])c3)NC(=O)[C@H](CC(C)C)N(C)C2=O)c2ccccc21 [Compound 10, ilamycin NJL10] (cyclo(A[X1]L[Gly(E-crotyl)][Trp(1-(1,1-Me2-allyl))][NMeL][Tyr(3-NO2)]))", 1.7]
]}

Prompt: # get_value(readout='MIC', item= C=CC(C)(C)n1cc(C[C@@H]2NC(=O)[C@H](C/C=C/C)NC(=O)[C@H](CC(C)C)NC(=O)[C@H](C[C@H](C)C(=O)N[C@H](C(=O)OC)[C@@H](C)O)N(C)C(=O)[C@H](C)NC(=O)[C@H](Cc3ccc(O)c([N+](=O)[O-])c3)NC(=O)[C@H](CC(C)C)N(C)C2=O)c2ccccc21 [Compound 1, ilamycin NJL1] (cyclo(A[X2]L[Gly(E-crotyl)][Trp(1-(1,1-Me2-allyl))][NMeL][Tyr(3-NO2)])) )
Completion: 1.7

* * *

System: L02
assay text: cells
Format: cell-based
experimental parameters: normal human hepatic cell line
pIC50: −log10 of the molar value. Starred links: 1 amine or outer side, 2 acyl side, 3 side chain; linkers in the order of their positions; H or OH if unused. Non-standard residues stand in square brackets, D forms with d. Residues, ends and D or L forms follow the SMILES beside them. X8 = O=C(CCc1c[nH]c2ccccc12)Oc1ccc(C[C@H](N[*:1])C(=O)[*:2])cc1[N+](=O)[O-]; X3 = O=C(Cc1ccc(F)cc1)Oc1ccc(C[C@H](N[*:1])C(=O)[*:2])cc1[N+](=O)[O-]; X13 = C[C@@H](C[C@@H](C(=O)[*:2])N(C)[*:1])C(=O)NCc1ccc(C(F)(F)F)cc1; Trp(1-(1,1-Me2-allyl)) = C=CC(C)(C)n1cc(C[C@H](N)C(=O)O)c2ccccc21; NMeGlu(4S-Me) = C[C@@H](C[C@@H](C(=O)[*:2])N(C)[*:1])C(=O)[*:3]; Tyr(3-NO2) = N[C@@H](Cc1ccc(O)c([N+](=O)[O-])c1)C(=O)O; Gly(E-crotyl) = C/C=C/C[C@H](N)C(=O)O; NMeL = CN[C@@H](CC(C)C)C(=O)O
Please go through the items and note down their pIC50.

{"columns": ["compound", "endpoint value"],
 "data": [
  ["C=CC(C)(C)n1cc(C[C@@H]2NC(=O)[C@H](C/C=C/C)NC(=O)[C@H](CC(C)C)NC(=O)[C@H](C[C@H](C)C(=O)NCc3ccc(C(F)(F)F)cc3)N(C)C(=O)[C@H](C)NC(=O)[C@H](Cc3ccc(O)c([N+](=O)[O-])c3)NC(=O)[C@H](CC(C)C)N(C)C2=O)c2ccccc21 [Compound 12, ilamycin NJL12] (cyclo(A[X13]L[Gly(E-crotyl)][Trp(1-(1,1-Me2-allyl))][NMeL][Tyr(3-NO2)]))", "< 4.30"],
  ["C=CC(C)(C)n1cc(C[C@@H]2NC(=O)[C@H](C/C=C/C)NC(=O)[C@H](CC(C)C)NC(=O)[C@H](C[C@H](C)C(=O)O)N(C)C(=O)[C@H](C)NC(=O)[C@H](Cc3ccc(OC(=O)Cc4ccc(F)cc4)c([N+](=O)[O-])c3)NC(=O)[C@H](CC(C)C)N(C)C2=O)c2ccccc21 [Compound 17, ilamycin NJL17] (cyclo(A[NMeGlu(4S-Me)]L[Gly(E-crotyl)][Trp(1-(1,1-Me2-allyl))][NMeL][X3]))", "< 4.30"]
]}

Read the next record carefully.
Prompt: # get_value(readout='pIC50', item= C=CC(C)(C)n1cc(C[C@@H]2NC(=O)[C@H](C/C=C/C)NC(=O)[C@H](CC(C)C)NC(=O)[C@H](C[C@H](C)C(=O)O)N(C)C(=O)[C@H](C)NC(=O)[C@H](Cc3ccc(OC(=O)CCc4c[nH]c5ccccc45)c([N+](=O)[O-])c3)NC(=O)[C@H](CC(C)C)N(C)C2=O)c2ccccc21 [Compound 16, ilamycin NJL16] (cyclo(A[NMeGlu(4S-Me)]L[Gly(E-crotyl)][Trp(1-(1,1-Me2-allyl))][NMeL][X8])) )
Completion: < 4.30
